System: Escherichia coli TOP10;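 also: peptides expressed intracellularly from a pBAD plasmid library in pooled LB shake-flask culture, induced with 0.3% L-arabinose, DNA abundance read by NGS, three biological replicates, DESeq2 with apeglm shrinkage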
assay.procedure: shrunken log2 fold change of peptide-encoding DNA abundance (4.5 h post-induction vs induction); higher = less antimicrobial activity (less host growth inhibition)
condition.set: time post-induction: 4.5 h; library: site-saturation at positions 5, 18, 19, 20
observed.property: shrunken log2 fold change

| sequence | observed.property | number |
| --- | --- | --- |
| RRIRHRPPRLPRPRPRPRVEPRP | shrunken log2 fold change | 0.0973 |
| RRIRYRPPRLPRPRPRPKLHPRP | shrunken log2 fold change | -0.431 |
| RRIRCRPPRLPRPRPRPITNPRP | shrunken log2 fold change | -0.449 |
| RRIRERPPRLPRPRPRPRFDPRP | shrunken log2 fold change | 1.26 |
| RRIRVRPPRLPRPRPRPEDKPRP | shrunken log2 fold change | -0.00975 |
| RRIRLRPPRLPRPRPRPNCDPRP | shrunken log2 fold change | -0.00298 |
| RRIRRRPPRLPRPRPRPYFGPRP | shrunken log2 fold change | -0.163 |
| RRIRCRPPRLPRPRPRPWRKPRP | shrunken log2 fold change | 0.119 |
| RRIRPRPPRLPRPRPRPQPGPRP | shrunken log2 fold change | 0.204 |
| RRIRFRPPRLPRPRPRPNYLPRP | shrunken log2 fold change | -0.381 |
| RRIRWRPPRLPRPRPRPIMQPRP | shrunken log2 fold change | 0.0828 |
| RRIRMRPPRLPRPRPRPIDWPRP | shrunken log2 fold change | 0.483 |
| RRIRNRPPRLPRPRPRPATHPRP | shrunken log2 fold change | 0.224 |
| RRIRARPPRLPRPRPRPYCNPRP | shrunken log2 fold change | -0.378 |
| RRIRCRPPRLPRPRPRPEWSPRP | shrunken log2 fold change | 0.144 |
